Test: NFAT Signaling Pathway (AID 444);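 further: carbachol stimulus at about its EC50 of 1 µM final; on the % scale 0 is the no-effect control and ±100 the full control effect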
Details: Jurkat NFAT-bla M1, carbachol, beta-lactamase ratio, 5 h; at 38 µM (top of the series)
Results filed as inconclusive are left out.
Below, each of the compounds is paired with its reported activity change, negative = inhibition value.
Supply the numeric figure in %, leaving out any unit text.

Answered examples (8):
Structure smiles | activity change, negative = inhibition (%)
CC(C)NC[C@@H](O)COc1ccc(CCOCC2CC2)cc1 | 5.51
NCCCCCCNS(=O)(=O)c1cccc2c(Cl)cccc12 | -4.09
C[C@@H]1CCN=C(N)S1 | 2.83
C[C@@H](/C=C\c1cccc(Oc2ccc(F)cc2)c1)N(O)C(N)=O | -4.07
Cn1cnc2c(NC3CCCC3)ncnc21 | -0.777
C[C@@](N)(C(=O)O)c1ccc(C(=O)O)cc1 | 6.09
N[C@@H]1CCN(O)C1=O | 0.992
N#C/C(=C\c1ccc(O)c(O)c1)C(=O)Nc1ccccc1 | 6.23

The reported activity change, negative = inhibition of the compound O=C1CC[C@H](N2C(=O)c3ccccc3C2=O)C(=O)N1 was -10.1

The reported activity change, negative = inhibition of the compound O=C(O)[C@H]1CCCNC1 was 2.68

The reported activity change, negative = inhibition of the compound COc1ccc2[nH]c(I)c(CCNC(C)=O)c2c1 was -1.64

The reported activity change, negative = inhibition of the compound C[C@H](N=C(NC#N)Nc1ccncc1)C(C)(C)C was 6.54

The reported activity change, negative = inhibition of the compound COc1ccc(/C=C\C(=O)Nc2ccccc2C(=O)O)cc1OC was -3.53
